src = paper PMC6222422

In this section we review reported pEC50 values for a set of molecules.
system: HSV-1; assay: microbe, parasite or virus in culture; type: cell-based, human herpes 1; details: Human alphaherpesvirus 1, Vero 76, read-out: HSV-1 EC50
pEC50: −log10 of the molar value.

Examples with their reported pEC50 follow.
{"molecule": "S=C(NCCc1c[nH]c2ccccc12)Nc1ccccc1Br [Compound 15]", "measured on": "HSV-1", "reported": "< 4.34"}
{"molecule": "S=C(NCCc1c[nH]c2ccccc12)NCc1ccccc1 [Compound 10]", "measured on": "HSV-1", "reported": "< 4.00"}
{"molecule": "Cc1ccc(NC(=S)NCCc2c[nH]c3ccccc23)cc1 [Compound 3]", "measured on": "HSV-1", "reported": "< 4.12"}
{"molecule": "Fc1cccc(NC(=S)NCCc2c[nH]c3ccccc23)c1 [Compound 12]", "measured on": "HSV-1", "reported": "< 4.22"}
{"molecule": "CNC(=S)NCCc1c[nH]c2ccccc12 [Compound 25]", "measured on": "HSV-1", "reported": "< 4.00"}

Item under review: S=C(NCCc1c[nH]c2ccccc12)Nc1ccc(I)cc1 [Compound 21] . Reported pEC50?
< 4.96

What value of pEC50 has been reported for the following molecule? Fc1ccc(NC(=S)NCCc2c[nH]c3ccccc23)cc1 [Compound 17]
< 4.28

Dear colleague, I am looking for the recorded pEC50 of the following molecule: S=C(NCCc1c[nH]c2ccccc12)Nc1ccc(Cl)c(Cl)c1 [Compound 6]
< 4.89

Look up pEC50 for this molecule: S=C(NCCc1c[nH]c2ccccc12)Nc1cccc(Br)c1 [Compound 7]
< 4.92

Item under review: Cc1ccc(NC(=S)NCCc2c[nH]c3ccccc23)cc1Cl [Compound 23] . Reported pEC50?
< 4.77

What pEC50 value was documented for this molecule, S=C(NCCc1c[nH]c2ccccc12)Nc1ccccc1 [Compound 1] ?
< 4.19

====

assay: in vitro; settings: cattle (Bos taurus)
For each record, check the reported CC50: if it is below 50 µM write Met, else write Not met.

{"smiles entry": "S=C(NCCc1c[nH]c2ccccc12)Nc1ccc(Cl)cc1", "discrete label": "Not met"}

Strictly below 50 µM in CC50? S=C(NCCc1ccccc1)NCCc1c[nH]c2ccccc12
Not met

# TODO verify CC50 < 50 µM strictly for this compound: CCCCc1ccc(NC(=S)NCCc2c[nH]c3ccccc23)c(C)c1
Met

Below 50 µM on CC50? Entry CCOC(=O)NC(=S)NCCc1c[nH]c2ccccc12
Not met

Record S=C(NCCc1c[nH]c2ccccc12)Nc1ccc(I)cc1 : is its CC50 strictly below 50 µM?
Not met

Please indicate whether the reported CC50 of Cc1ccc(Cl)cc1NC(=S)NCCc1c[nH]c2ccccc12 is strictly below 50 µM.
Met

====

tested on: Sb-1; test: microbe, parasite or virus in culture; assay type: cell-based, poliovirus type-1; details: Enterovirus C, Vero 76, read-out: Sb-1 EC50
attribute measured: EC50

{"smiles entry": "Fc1ccc(NC(=S)NCCc2c[nH]c3ccccc23)cc1", "EC50": "> 53 µM"}
{"smiles entry": "Fc1ccccc1NC(=S)NCCc1c[nH]c2ccccc12", "EC50": "> 73 µM"}
{"smiles entry": "Cc1ccc(NC(=S)NCCc2c[nH]c3ccccc23)cc1", "EC50": "> 75 µM"}
{"smiles entry": "S=C(NCCc1c[nH]c2ccccc12)Nc1ccccc1Br", "EC50": "> 46 µM"}
{"smiles entry": "CCNC(=S)NCCc1c[nH]c2ccccc12", "EC50": "> 100 µM"}

Now turn to the next molecule.
Fill blank: measured EC50 of the molecule FC(F)(F)c1cccc(NC(=S)NCCc2c[nH]c3ccccc23)c1 is ____.
> 16 µM

====

experiment: in vitro; settings: cattle (Bos taurus)
Mark Met only for CC50 values smaller than 50 µM; exact matches and larger values are Not met.

Would you please look over these solved cases?
{"molecule": "Fc1ccc(NC(=S)NCCc2c[nH]c3ccccc23)cc1 [Compound 17]", "discrete label": "Not met"}
{"molecule": "S=C(NCCc1c[nH]c2ccccc12)Nc1ccccc1 [Compound 1]", "discrete label": "Not met"}
{"molecule": "Cc1ccc(NC(=S)NCCc2c[nH]c3ccccc23)cc1Cl [Compound 23]", "discrete label": "Met"}
{"molecule": "Fc1ccccc1NC(=S)NCCc1c[nH]c2ccccc12 [Compound 11]", "discrete label": "Not met"}
{"molecule": "S=C(NCCc1c[nH]c2ccccc12)NCc1ccccc1 [Compound 10]", "discrete label": "Not met"}

State whether 50 µM exceeds CC50 recorded for S=C(NCCc1c[nH]c2ccccc12)Nc1cccc(Cl)c1 [Compound 14] .
Met

Say whether its CC50 is strictly beneath 50 µM. Entry: S=C(NCCc1c[nH]c2ccccc12)Nc1ccc(Br)cc1 [Compound 8]
Not met

Field: below-cutoff. Rule: recorded CC50 strictly less than 50 µM. Subject: S=C(NCCc1c[nH]c2ccccc12)NC1CCCCC1 [Compound 9]
Not met

Problem: For the molecule C=C(C)CNC(=S)NCCc1c[nH]c2ccccc12 [Compound 19] , is CC50 under 50 µM?
Not met

Determine if C=CCNC(=S)NCCc1c[nH]c2ccccc12 [Compound 18] shows CC50 strictly lower than 50 µM.
Not met

For Fc1ccc(NC(=S)NCCc2c[nH]c3ccccc23)cc1Cl [Compound 28] , is the recorded CC50 below the cut-off of 50 µM?
Met

Does this molecule meet the criterion CC50 < 50 µM? FC(F)(F)c1cccc(NC(=S)NCCc2c[nH]c3ccccc23)c1 [Compound 24]
Met

Item S=C(NCCc1c[nH]c2ccccc12)Nc1ccccc1Br [Compound 15] : CC50 beneath 50 µM, strictly?
Met
